- ASSAY_PROCEDURE: Pharmacokinetic evaluation in Dog
- Format: in vivo
- APPLIED_CONDITIONS: in vivo; Dog, PO 0.67 mg/kg
- Experimental: Aza-T-dCyd was administered orally and intravenously at various concentrations to Mice, Rats and Dogs to determine the PK profile.
MEASURE_NAME: Tmax (min)

COMPOUND: Nc1ncn([C@H]2CC(O)[C@@H](CO)S2)c(=O)n1 (stereo partly shown)
MEASURE_NAME: Tmax
READOUT_UNITS: min
ASSAY_RESULT: 49.8

###

- ASSAY_PROCEDURE: Pharmacokinetic evaluation in Dog
- Assay type: in vivo
- APPLIED_CONDITIONS: in vivo; Dog, PO 3.0 mg/kg
MEASURE_NAME: AUC(0-t) (ng·h/mL)

COMPOUND: Nc1ncn([C@H]2CC(O)[C@@H](CO)S2)c(=O)n1 (stereo partly shown) [Aza-T-dCyd, 4′-thio-5-aza-2′-deoxycytidine]
ASSAY_RESULT: 5380

Reference source for all entries: patent US12708630B2
